# selectivity ratio listing for each entry below
- Assay Summary: Selectivity index, ratio of CC50 for human U2OS cells infected with amastigote stage of Trypanosoma cruzi Y to EC50 for amastigote stage of Trypanosoma cruzi Y
- Assay type: toxicity, cell-based
- Condition Description: U2OS cells infected with Trypanosoma cruzi Y amastigotes, read-out: Ratio CC50/EC50

{"columns": ["Compound", "selectivity ratio"],
 "data": [
  ["NC(=O)NN=C(Cn1cncn1)c1ccc(F)cc1F", "> 3.1"],
  ["NC(=S)NN=C(Cn1cnc([N+](=O)[O-])n1)c1ccc(F)cc1F", "> 9.27"],
  ["O=C(Cn1ccnc1[N+](=O)[O-])NCc1ccccc1", "> 101"],
  ["O=C(Cn1cnc([N+](=O)[O-])n1)c1ccc(F)cc1F", "> 36"],
  ["NC(=S)NN=C(Cn1cncn1)c1ccc(F)cc1F", "> 13"],
  ["NC(=O)NN=C(Cn1cnc([N+](=O)[O-])n1)c1ccc(F)cc1F", "> 2"],
  ["O=C(Cn1cncn1)c1ccc(F)cc1F", "> 1.4"],
  ["CC1CS(=O)(=O)CCN1/N=C/c1ccc([N+](=O)[O-])o1 (stereo not drawn)", 78.9]
]}

---

- Assay Summary: Cytotoxicity against human U2OS cells infected with amastigote stage of Trypanosoma cruzi Y assessed as decrease in number of cells after 96 hrs by Draq5 staining-based high content screening assay
- Assay type: toxicity, cell-based
- Condition Description: U2OS cells infected with Trypanosoma cruzi Y amastigotes
Readout Name: CC50 at 96 h (µM)

{"columns": ["Compound", "Measured Result"],
 "data": [
  ["CC1CS(=O)(=O)CCN1/N=C/c1ccc([N+](=O)[O-])o1 (stereo unspecified)", 26.8]
]}
